assay_system: IL-8 (Homo sapiens)
Sequence (P10145 21-99, species assumed): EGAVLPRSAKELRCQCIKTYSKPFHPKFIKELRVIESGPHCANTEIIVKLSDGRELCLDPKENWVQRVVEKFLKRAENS
procedure_details: Biacore biosensor: inhibition of IL-8 binding to immobilised heparin and heparan sulfate
particulars: immobilised heparin; inhibitor 1.0 μM, IL-8 0.068 μM; read-out: Inhibition of binding of IL-8 (Hep)
Param threshold (60%) applies to inhibition at 1 µM; output YES when value >= threshold, NO when value < threshold.

- mol_smiles: "O=S(=O)(O)O[C@H]1[C@H](OS(=O)(=O)O)[C@@H](N(CCCCCCCCCN([C@H]2C=C[C@@H](OS(=O)(=O)O)[C@@H](OS(=O)(=O)O)[C@@H]2OS(=O)(=O)O)[C@H]2C=C[C@@H](OS(=O)(=O)O)[C@@H](OS(=O)(=O)O)[C@@H]2OS(=O)(=O)O)[C@H]2C=C[C@@H](OS(=O)(=O)O)[C@@H](OS(=O)(=O)O)[C@@H]2OS(=O)(=O)O)C=C[C@H]1OS(=O)(=O)O"
  class_name: "YES"
- mol_smiles: "O=S(=O)(O)O[C@H]1[C@H](OS(=O)(=O)O)[C@@H](N(CCCCN([C@H]2C=C[C@@H](OS(=O)(=O)O)[C@@H](OS(=O)(=O)O)[C@@H]2OS(=O)(=O)O)[C@H]2C=C[C@@H](OS(=O)(=O)O)[C@@H](OS(=O)(=O)O)[C@@H]2OS(=O)(=O)O)[C@H]2C=C[C@@H](OS(=O)(=O)O)[C@@H](OS(=O)(=O)O)[C@@H]2OS(=O)(=O)O)C=C[C@H]1OS(=O)(=O)O"
  class_name: "YES"
- mol_smiles: "O=S(=O)(O)O[C@H]1[C@H](OS(=O)(=O)O)[C@@H](N(CCCCCCCN([C@H]2C=C[C@@H](OS(=O)(=O)O)[C@@H](OS(=O)(=O)O)[C@@H]2OS(=O)(=O)O)[C@H]2C=C[C@@H](OS(=O)(=O)O)[C@@H](OS(=O)(=O)O)[C@@H]2OS(=O)(=O)O)[C@H]2C=C[C@@H](OS(=O)(=O)O)[C@@H](OS(=O)(=O)O)[C@@H]2OS(=O)(=O)O)C=C[C@H]1OS(=O)(=O)O"
  class_name: "NO"
- mol_smiles: "O=S(=O)(O)O[C@H]1[C@H](OS(=O)(=O)O)[C@@H](N(CCN([C@H]2C=C[C@@H](OS(=O)(=O)O)[C@@H](OS(=O)(=O)O)[C@@H]2OS(=O)(=O)O)[C@H]2C=C[C@@H](OS(=O)(=O)O)[C@@H](OS(=O)(=O)O)[C@@H]2OS(=O)(=O)O)[C@H]2C=C[C@@H](OS(=O)(=O)O)[C@@H](OS(=O)(=O)O)[C@@H]2OS(=O)(=O)O)C=C[C@H]1OS(=O)(=O)O"
  class_name: "NO"
- mol_smiles: "O=S(=O)(O)O[C@H]1[C@H](OS(=O)(=O)O)[C@@H](N(CCCCCCCCCCN([C@H]2C=C[C@@H](OS(=O)(=O)O)[C@@H](OS(=O)(=O)O)[C@@H]2OS(=O)(=O)O)[C@H]2C=C[C@@H](OS(=O)(=O)O)[C@@H](OS(=O)(=O)O)[C@@H]2OS(=O)(=O)O)[C@H]2C=C[C@@H](OS(=O)(=O)O)[C@@H](OS(=O)(=O)O)[C@@H]2OS(=O)(=O)O)C=C[C@H]1OS(=O)(=O)O"
  class_name: "YES"
- mol_smiles: "O=S(=O)(O)O[C@H]1[C@H](OS(=O)(=O)O)[C@@H](N(CCCCCN([C@H]2C=C[C@@H](OS(=O)(=O)O)[C@@H](OS(=O)(=O)O)[C@@H]2OS(=O)(=O)O)[C@H]2C=C[C@@H](OS(=O)(=O)O)[C@@H](OS(=O)(=O)O)[C@@H]2OS(=O)(=O)O)[C@H]2C=C[C@@H](OS(=O)(=O)O)[C@@H](OS(=O)(=O)O)[C@@H]2OS(=O)(=O)O)C=C[C@H]1OS(=O)(=O)O"
  class_name: "YES"
- mol_smiles: "O=S(=O)(O)O[C@H]1[C@H](OS(=O)(=O)O)[C@@H](N(CCCCCCCCN([C@H]2C=C[C@@H](OS(=O)(=O)O)[C@@H](OS(=O)(=O)O)[C@@H]2OS(=O)(=O)O)[C@H]2C=C[C@@H](OS(=O)(=O)O)[C@@H](OS(=O)(=O)O)[C@@H]2OS(=O)(=O)O)[C@H]2C=C[C@@H](OS(=O)(=O)O)[C@@H](OS(=O)(=O)O)[C@@H]2OS(=O)(=O)O)C=C[C@H]1OS(=O)(=O)O"
  class_name: "YES"
